The origin of these recorded values is BindingDB's records for doi:10.1016/j.bmc.2015.10.018.

Biological target: Carbonic anhydrase 1 (Homo sapiens)
Test: Inhibition of human recombinant carbonic anhydrase 1
MEASURED_METRIC: Ki

Input O=c1cc(O)cc2oc(-c3ccc(O)c(O)c3)c(O[C@@H]3O[C@H](CO)[C@@H](O)[C@H](O)[C@H]3O)c(O)c1-2 [Quercetin 3-O-beta-D-glucoside] , output reported Ki. > 10 µM

###

Target: UniProt:O43570
Assay: ChEBML_1523544
Settings: 25 °C
Protocol: Inhibition of human recombinant carbonic anhydrase 12 preincubated for 15 mins at room temperature/6 hrs at 4 deg C by stopped-flow CO2 hydration assay
MEASURED_METRIC: Ki (nM)
The answer is to be given in nM; state only the numeric part.

State, for UniProt:O43570, measured Ki of the compound listed here: O=c1cc(O)cc2oc(-c3ccc(O)c(O)c3)c(O[C@@H]3O[C@H](CO)[C@@H](O)[C@H](O)[C@H]3O)c(O)c1-2 [Quercetin 3-O-beta-D-glucoside] 52.1

###

Biological target: Carbonic anhydrase 12 (Homo sapiens, UniProt O43570)
Sequence (O43570 whole entry): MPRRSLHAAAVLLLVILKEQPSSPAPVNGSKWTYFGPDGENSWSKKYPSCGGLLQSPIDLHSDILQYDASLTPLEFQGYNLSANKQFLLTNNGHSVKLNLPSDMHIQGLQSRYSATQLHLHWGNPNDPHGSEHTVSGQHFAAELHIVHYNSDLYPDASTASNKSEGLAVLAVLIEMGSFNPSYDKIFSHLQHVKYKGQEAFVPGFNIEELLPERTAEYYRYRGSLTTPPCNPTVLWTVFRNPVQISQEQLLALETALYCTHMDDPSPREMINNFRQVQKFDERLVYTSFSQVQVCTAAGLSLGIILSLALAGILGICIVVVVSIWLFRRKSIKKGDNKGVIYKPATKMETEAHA
Assay: Inhibition of human recombinant carbonic anhydrase 12 preincubated for 15 mins at room temperature/6 hrs at 4 deg C by stopped-flow CO2 hydration assay
Conditions: 25 °C
MEASURED_METRIC: Ki (nM)
The answer is to be given in nM; state only the numeric part.

State, for Carbonic anhydrase 12 (Homo sapiens, UniProt O43570), measured Ki of the molecule listed here: O=c1cc(O)cc2oc(-c3ccc(O)c(O)c3)c(O[C@@H]3O[C@H](CO)[C@@H](O)[C@H](O)[C@H]3O)c(O)c1-2 [Quercetin 3-O-beta-D-glucoside] 52

###

Molecular target: Carbonic anhydrase 1 (Homo sapiens, UniProt P00915)
Sequence (P00915 whole entry): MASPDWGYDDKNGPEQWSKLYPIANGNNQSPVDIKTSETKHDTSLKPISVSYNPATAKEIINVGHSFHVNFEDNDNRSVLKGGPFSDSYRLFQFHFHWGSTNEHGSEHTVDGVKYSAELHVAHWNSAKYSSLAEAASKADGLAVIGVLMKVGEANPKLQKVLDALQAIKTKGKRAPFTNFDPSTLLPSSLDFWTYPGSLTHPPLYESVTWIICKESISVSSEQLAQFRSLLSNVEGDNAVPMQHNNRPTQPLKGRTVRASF
Test: ChEBML_1523540
Settings: 25 °C
MEASURED_METRIC: Ki

State, for Carbonic anhydrase 1 (Homo sapiens, UniProt P00915), measured Ki of the molecule listed here: O=c1cc(O)cc2oc(-c3ccc(O)c(O)c3)c(O[C@@H]3O[C@H](CO)[C@@H](O)[C@H](O)[C@H]3O)c(O)c1-2 [Quercetin 3-O-beta-D-glucoside] > 10 µM

###

Molecular target: Carbonic anhydrase 2 (Homo sapiens)
Assay: ChEBML_1523541
Conditions: 25 °C
MEASURED_METRIC: Ki (µM)
The answer is to be given in µM; state only the numeric part.

Input O=c1cc(O)cc2oc(-c3ccc(O)c(O)c3)c(O[C@@H]3O[C@H](CO)[C@@H](O)[C@H](O)[C@H]3O)c(O)c1-2 [Quercetin 3-O-beta-D-glucoside] , output reported Ki. 6.21
